# Test system: HL-60(TB) leukemia
# testMethodNotes: NCI-60 one-dose screen, 48 h
# runParameters: 10 µM unless noted
Compounds without any hit were thinned out: in the full panel of roughly 83,000, 20% have a hit. Activity calls are given as the source filed them. How the source made its calls: active means growth percent below 10; inactive means the rest.
Respond only with the outcome that fits, drawn from t (active), f (inactive)

Take a look at these entries with their results.
> print(dat)
                                   compound  cat
1  COc1cc(/C=C2\SC(=O)NC2=O)ccc1OCC(=O)Nc1ccc(C(=O)/C=C/c2cc3ccccc3nc2Cl)cc1    f
2  OC1CCc2c(-c3ccc4ncnc(N5CCc6cc(F)c(Cl)cc65)c4c3)cncc21 (stereo not drawn)    f

In the following, a different compound is considered.
Asked: # lookup: test call for `ClC(Cl)c1nc(-c2cccs2)n2nc(-c3ccccc3)cc2n1`
Given back: t
